tested on: IL6 gene; assay: RT-qPCR IL6 gene expression in BEAS-2B; type: cell-based, Human; conditions: Homo sapiens, 24 h, reference gene RPL41, vs untreated control, read-out: Relative level of expression, IL6 gene
Mark each entry 1 (yes) if its fold induction at 100 µM sits below 10, and 0 (no) for all others.

Here are 8 compounds together with their reported answers.
Enquiry: Please state whether fold induction at 100 µM is below 10 for Clc1ccc2c(c1)Sc1cc3ccccc3nc1N2Cc1cn(CSc2ccccc2)nn1 [MJ15]
Return: 0 (no)

Enquiry: State whether 10 exceeds fold induction at 100 µM recorded for CSc1ccc2c(c1)Sc1cc3ccccc3nc1N2Cc1cn(Cc2ccc(C#N)cc2)nn1 [MJ19] .
Return: 0 (no)

Enquiry: Identify whether the compound c1ccc(SCn2cc(CN3c4ccccc4Sc4cc5ccccc5nc43)nn2)cc1 [MJ5] records fold induction at 100 µM below 10.
Return: 1 (yes)

Enquiry: Check if fold induction at 100 µM falls below 10 for N#Cc1ccc(Cn2cc(CN3c4ccccc4Sc4cc5ccccc5nc43)nn2)cc1 [MJ4] .
Return: 1 (yes)

Enquiry: Record Fc1ccc2c(c1)Sc1cc3ccccc3nc1N2Cc1cn(CSc2ccccc2)nn1 [MJ10] : is its fold induction at 100 µM strictly below 10?
Return: 1 (yes)

Enquiry: Please let me know if Clc1ccc2c(c1)Sc1cc3ccccc3nc1N2Cc1cn(Cc2ccccc2)nn1 [MJ11] shows fold induction at 100 µM below 10.
Return: 1 (yes)

Enquiry: Hello, is fold induction at 100 µM of the following compound strictly smaller than 10? N#Cc1ccc(Cn2cc(CN3c4ccc(F)cc4Sc4cc5ccccc5nc43)nn2)cc1 [MJ9]
Return: 1 (yes)

Enquiry: Confirm or reject: fold induction at 100 µM of Clc1ccc(Cn2cc(CN3c4ccccc4Sc4cc5ccccc5nc43)nn2)cc1 [MJ3] lies strictly below 10
Return: 1 (yes)

Lab note: next compound to report on.
Enquiry: I'd appreciate it if you could check whether CSc1ccc2c(c1)Sc1cc3ccccc3nc1N2Cc1cn(Cc2ccc(F)cc2)nn1 [MJ17] has fold induction at 100 µM smaller than 10.
Return: 0 (no)

----------
test system: MDM2 gene; assay: RT-qPCR MDM2 gene expression in BEAS-2B; type: cell-based, Human; conditions: Homo sapiens, 24 h, reference gene RPL41, vs untreated control, read-out: Relative level of expression, MDM2 gene
Binary label based on fold induction at 100 µM with cut-off 5: below gives label 1, not below gives label 0.

Enquiry: Lab log: compare recorded fold induction at 100 µM with 5; is it strictly lower for Clc1ccc(Cn2cc(CN3c4ccc(Cl)cc4Sc4cc5ccccc5nc43)nn2)cc1 [MJ13] ?
Return: label 1

Enquiry: Please state whether fold induction at 100 µM is below 5 for CSc1ccc2c(c1)Sc1cc3ccccc3nc1N2Cc1cn(Cc2ccc(F)cc2)nn1 [MJ17]
Return: label 0

Enquiry: Would you kindly verify if fold induction at 100 µM of N#Cc1ccc(Cn2cc(CN3c4ccc(F)cc4Sc4cc5ccccc5nc43)nn2)cc1 [MJ9] is strictly less than 5?
Return: label 0

Enquiry: Consider c1ccc(Cn2cc(CN3c4ccccc4Sc4cc5ccccc5nc43)nn2)cc1 [MJ1] . Does its fold induction at 100 µM lie strictly below 5?
Return: label 0

Enquiry: Answer whether the molecule Fc1ccc2c(c1)Sc1cc3ccccc3nc1N2Cc1cn(CSc2ccccc2)nn1 [MJ10] has fold induction at 100 µM strictly less than 5
Return: label 1

---
Enquiry: Say whether its fold induction at 100 µM is strictly beneath 5. Entry: Clc1ccc2c(c1)Sc1cc3ccccc3nc1N2Cc1cn(CSc2ccccc2)nn1 [MJ15]
Return: label 0

Enquiry: # check: fold induction at 100 µM < 5 for c1ccc(SCn2cc(CN3c4ccccc4Sc4cc5ccccc5nc43)nn2)cc1 [MJ5]
Return: label 1

Enquiry: Say whether its fold induction at 100 µM is strictly beneath 5. Entry: CSc1ccc2c(c1)Sc1cc3ccccc3nc1N2Cc1cn(Cc2ccccc2)nn1 [MJ16]
Return: label 0

Enquiry: Does the reported fold induction at 100 µM of N#Cc1ccc(Cn2cc(CN3c4ccccc4Sc4cc5ccccc5nc43)nn2)cc1 [MJ4] stay below 5?
Return: label 1

Enquiry: Identify whether the molecule Fc1ccc(Cn2cc(CN3c4ccc(Cl)cc4Sc4cc5ccccc5nc43)nn2)cc1 [MJ12] records fold induction at 100 µM below 5.
Return: label 1

Enquiry: Determine whether this molecule shows fold induction at 100 µM lower than 5 (ties excluded): Clc1ccc(Cn2cc(CN3c4ccccc4Sc4cc5ccccc5nc43)nn2)cc1 [MJ3]
Return: label 0

Enquiry: API: query returns whether the molecule falls strictly under 5 in fold induction at 100 µM. Query: Fc1ccc(Cn2cc(CN3c4ccc(F)cc4Sc4cc5ccccc5nc43)nn2)cc1 [MJ7]
Return: label 1

Enquiry: Below 5 on fold induction at 100 µM? Entry CSc1ccc2c(c1)Sc1cc3ccccc3nc1N2Cc1cn(Cc2ccc(C#N)cc2)nn1 [MJ19]
Return: label 0

Enquiry: # strict comparison: is reported fold induction at 100 µM < 5? input = Clc1ccc2c(c1)Sc1cc3ccccc3nc1N2Cc1cn(Cc2ccccc2)nn1 [MJ11]
Return: label 1

----------
System: BCL2 gene
Assay: RT-qPCR BCL2 gene expression in BEAS-2B
Assay type: cell-based, Human
Details: Homo sapiens, 24 h, reference gene RPL41, vs untreated control, read-out: Relative level of expression, BCL2 gene
Protocol: Real-time polymerase chain reaction was performed for the reference gene RPL41 (ribosomal protein L41) and the tested genes: BCL2, AIFM2, MDM2, IL6 and IL8. […] The BEAS-2B line was selected for the experiment. The expression level of selected genes was measured after 24 h of incubation with the tested substances MJ1–MJ20 at a concentration of 100 μM (Table 3). The RT-qPCR experiment was performed for the BEAS-2B cell line. […]
Outcome measure: fold induction at 100 µM
Respond numerically, and do not add a unit to the figure.

Answered examples (6):
Enquiry: Notebook: pull reported fold induction at 100 µM for BCL2 gene, entry `Fc1ccc(Cn2cc(CN3c4ccc(Cl)cc4Sc4cc5ccccc5nc43)nn2)cc1`
Return: 25.9

Enquiry: Hi! What's the reported fold induction at 100 µM for `CSc1ccc2c(c1)Sc1cc3ccccc3nc1N2Cc1cn(Cc2ccc(C#N)cc2)nn1` on BCL2 gene?
Return: 208

Enquiry: Could you share what fold induction at 100 µM was measured for `Fc1ccc2c(c1)Sc1cc3ccccc3nc1N2Cc1cn(Cc2ccccc2)nn1` , tested on BCL2 gene?
Return: 8.5

Enquiry: Give BCL2 gene fold induction at 100 µM for `Fc1ccc(Cn2cc(CN3c4ccccc4Sc4cc5ccccc5nc43)nn2)cc1`
Return: 6.5

Enquiry: // map `Fc1ccc(Cn2cc(CN3c4ccc(F)cc4Sc4cc5ccccc5nc43)nn2)cc1` to recorded fold induction at 100 µM (system: BCL2 gene)
Return: 7.5

Enquiry: # returns recorded fold induction at 100 µM (system: BCL2 gene) for `Clc1ccc2c(c1)Sc1cc3ccccc3nc1N2Cc1cn(Cc2ccccc2)nn1`
Return: 49.9

API: the following record is the query input.
Enquiry: Request body: readout fold induction at 100 µM, system BCL2 gene, query `c1ccc(Cn2cc(CN3c4ccccc4Sc4cc5ccccc5nc43)nn2)cc1` . Return the value.
Return: 23

----------
tested on: IL6 gene; test: RT-qPCR IL6 gene expression in BEAS-2B; format: cell-based, Human; details: Homo sapiens, 24 h, reference gene RPL41, vs untreated control, read-out: Relative level of expression, IL6 gene
So basically: fold induction at 100 µM at 9 or higher? That is true (1). Lower than 9? That is false (0).

Enquiry: Tell me whether fold induction at 100 µM is at least 9 here: `Fc1ccc(Cn2cc(CN3c4ccccc4Sc4cc5ccccc5nc43)nn2)cc1`
Return: false (0)

Enquiry: Kindly determine if fold induction at 100 µM recorded for `CSc1ccc2c(c1)Sc1cc3ccccc3nc1N2Cc1cn(Cc2ccc(Cl)cc2)nn1` is above or exactly 9.
Return: true (1)

Enquiry: Evaluate `Fc1ccc2c(c1)Sc1cc3ccccc3nc1N2Cc1cn(Cc2ccccc2)nn1` : fold induction at 100 µM at minimum 9?
Return: false (0)

Enquiry: Could you tell me if the measured fold induction at 100 µM of `Fc1ccc(Cn2cc(CN3c4ccc(Cl)cc4Sc4cc5ccccc5nc43)nn2)cc1` reaches 9 or more?
Return: false (0)

Further cases:
Enquiry: Does the molecule `CSc1ccc2c(c1)Sc1cc3ccccc3nc1N2Cc1cn(Cc2ccccc2)nn1` have recorded fold induction at 100 µM that is 9 or more?
Return: true (1)

Enquiry: fold induction at 100 µM >= 9 for `c1ccc(Cn2cc(CN3c4ccccc4Sc4cc5ccccc5nc43)nn2)cc1` ?
Return: false (0)

Enquiry: Assess whether reported fold induction at 100 µM for `CSc1ccc2c(c1)Sc1cc3ccccc3nc1N2Cc1cn(CSc2ccccc2)nn1` sits at 9 or higher.
Return: true (1)

Enquiry: Could you verify whether the entry `Fc1ccc(Cn2cc(CN3c4ccc(F)cc4Sc4cc5ccccc5nc43)nn2)cc1` shows fold induction at 100 µM of no less than 9?
Return: false (0)

Enquiry: Hello, I need to know if `Clc1ccc(Cn2cc(CN3c4ccc(Cl)cc4Sc4cc5ccccc5nc43)nn2)cc1` has measured fold induction at 100 µM not below 9. Thanks!
Return: false (0)

Enquiry: Threshold query (fold induction at 100 µM >= 9) on `Fc1ccc2c(c1)Sc1cc3ccccc3nc1N2Cc1cn(Cc2ccc(Cl)cc2)nn1`
Return: true (1)
